Study Target: 5-hydroxytryptamine receptor 1A (Homo sapiens, UniProt P08908); also: assay procedure not described here
Sequence (P08908 whole entry): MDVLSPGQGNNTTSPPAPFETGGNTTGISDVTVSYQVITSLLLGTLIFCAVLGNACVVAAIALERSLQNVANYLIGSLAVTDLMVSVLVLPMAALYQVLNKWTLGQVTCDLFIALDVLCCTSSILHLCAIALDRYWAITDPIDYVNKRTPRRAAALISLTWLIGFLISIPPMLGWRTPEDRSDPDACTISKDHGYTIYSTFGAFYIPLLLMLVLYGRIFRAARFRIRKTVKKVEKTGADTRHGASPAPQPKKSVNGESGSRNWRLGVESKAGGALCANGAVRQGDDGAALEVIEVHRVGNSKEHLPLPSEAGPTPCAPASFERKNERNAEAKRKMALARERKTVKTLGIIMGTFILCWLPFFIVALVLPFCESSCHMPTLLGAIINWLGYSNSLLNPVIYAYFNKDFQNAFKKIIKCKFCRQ
Format: functional, cell-based
Could you please report measured AC50 for the items listed next?

Q: Note AC50 for the compound shown: CCCC(=O)N1CCCN(c2nc(N)c3cc(OC)c(OC)cc3n2)CC1 [BUNAZOSIN]
Result: > 30 µM

Q: Using the record for COc1c(C)c2c(c(O)c1C/C=C(\C)CCC(=O)OCCN1CCOCC1)C(=O)OC2 [MYCOPHENOLATE MOFETIL] , state its measured AC50.
Result: > 30 µM

Q: Hello, please tell me recorded AC50 for this one: CN1CCN(C(=O)OC2c3nccnc3C(=O)N2c2ccc(Cl)cn2)CC1 (configuration not stated) [ZOPICLONE]
Result: > 10 µM

Q: Entry CN(C)C(=O)OC1N=C(c2ccccc2)c2cc(Cl)ccc2N(C)C1=O (configuration not stated) [CAMAZEPAM] needs its AC50 filled in; supply it.
Result: > 10 µM

Q: Answer with the recorded AC50 of [H]/N=C(/N)c1ccc(NCc2nc3cc(C(=O)N(CCC(=O)O)c4ccccn4)ccc3n2C)cc1 [DABIGATRAN] only.
Result: > 30 µM

Q: // Input: C1COC(NC(C2CC2)C2CC2)=N1 [RILMENIDINE] . Output its AC50 only.
Result: > 30 µM

Q: Identify measured AC50 corresponding to COc1ccc2c(c1)C(=O)N(CCc1ccc(S(=O)(=O)NC(=O)NC3CCCCC3)cc1)C(=O)C2(C)C [GLIQUIDONE]
Result: > 30 µM

Q: State its AC50: C[C@H]1C[C@@H]2[C@H]([C@@H](O)C[C@@]3(C)[C@H]2CC[C@]3(O)C(=O)CO)[C@@]2(C)C=CC(=O)C=C12 [METHYLPREDNISOLONE]
Result: > 10 µM

Q: Give the measured AC50 for COc1ccc2c(c1)c(CC(=O)OCC(=O)O)c(C)n2C(=O)c1ccc(Cl)cc1 [ACEMETACIN]
Result: > 30 µM

Q: Check the records and state AC50 for CCc1nn(CCCN2CCN(c3cccc(Cl)c3)CC2)c(=O)n1CCOc1ccccc1 [NEFAZODONE]
Result: 2 µM

Q: Read the entry CN[C@@H]1[C@H](O)[C@H](NC)[C@H]2O[C@@]3(O)C(=O)C[C@@H](C)O[C@H]3O[C@@H]2[C@H]1O [SPECTINOMYCIN] and write its reported AC50.
Result: > 30 µM

Q: Item C[C@]12CCC(=O)C=C1CC[C@@H]1[C@@H]2CC[C@@]2(C)[C@H]1CC[C@]2(C)O [METHYLTESTOSTERONE] : provide AC50
Result: > 30 µM

Q: Supply recorded AC50 for N[C@@H](CSCC(=O)O)C(=O)O [CARBOCYSTEINE] here.
Result: > 30 µM

Q: Report measured AC50; entry is CC(C(O)c1ccc(O)cc1)N1CCC(Cc2ccccc2)CC1 (configuration not stated) [IFENPRODIL]
Result: 1.3 µM

Q: Please report the measured AC50 for COc1c(N2CCNC(C)C2)c(F)cc2c(=O)c(C(=O)O)cn(C3CC3)c12 (configuration not stated) [GATIFLOXACIN]
Result: > 10 µM

Q: # return recorded AC50 for entry O=C1CN=C(c2ccccc2)c2cc(Cl)ccc2N1CC(F)(F)F [HALAZEPAM]
Result: > 30 µM

Q: Give AC50 for CN1C(=O)CC(=O)N(c2ccccc2)c2cc(Cl)ccc21 [CLOBAZAM]
Result: > 10 µM
